Listing of recorded gcPBM binding intensity (ln) by entry.
# System: PfSIP2 AP2 domain 1 (GST-tagged)
# assay: gcPBM binding intensity (ln(normalized median fluorescence intensity)); higher = stronger DNA binding
The full ranking holds about 25,000 sequences; the median of “ln(normalized median fluorescence intensity)” is about 7.1, and the highest 2% start at about 10. The list comes from a sample in which the highest values are over-represented; it also holds close analogues and randomly drawn sequences.

sequence.content | study.target | gcPBM binding intensity (ln)
ATGAATATAATGAAGTGTACATAAAAATAATAAATA [XGTACX_site2481] | PfSIP2 AP2 domain 1 (GST-tagged) | 7.11
GTCCTCATCCACTATGCACACAAAAAAGAAATACAC [CACACA_site9131] | PfSIP2 AP2 domain 1 (GST-tagged) | 8.48
AGGATATGCAGACACACACACATATAGATTTATATA [CACACA_site7100] | PfSIP2 AP2 domain 1 (GST-tagged) | 7.08
CTCCTCATATAATTTTGTACATAAAAAATTACCATT [XGTACX_site3879] | PfSIP2 AP2 domain 1 (GST-tagged) | 7.31
CATATATAAATATATACACACATATATATATATATA [CACACA_site1365] | PfSIP2 AP2 domain 1 (GST-tagged) | 9.43
TATTTTTTTACATATTGTACATAATATAAAACTTAC [XGTACX_site8273] | PfSIP2 AP2 domain 1 (GST-tagged) | 7.17
GTTAGGATAGATTAGACATGCACATAAATGCACTTC [TGCATGCA_site561] | PfSIP2 AP2 domain 1 (GST-tagged) | 11
ATATTTTATATAATAGTGCAAATAATATTAAATAAT | PfSIP2 AP2 domain 1 (GST-tagged) | 8.4
AATTTTGTATAGGTATCACACATGAAATATATTATT [CACACA_site5526] | PfSIP2 AP2 domain 1 (GST-tagged) | 6.98
AAAATTAGATTATGCACACACACTTAAAAATAATAA [CACACA_site1975] | PfSIP2 AP2 domain 1 (GST-tagged) | 8.5
AATTGAGAAGTGTGTTGTACATAATGGCACATACCT [XGTACX_site1370] | PfSIP2 AP2 domain 1 (GST-tagged) | 7.22
ATACGATTGCAGTCAAAAAGGAAAATATAAAAAAAG [XGTACX_negctrl_site124] | PfSIP2 AP2 domain 1 (GST-tagged) | 7.29
ATATATATATTTATAGTGCATTTATATTAAAATATC [GTGCAC_site9818] | PfSIP2 AP2 domain 1 (GST-tagged) | 8.92
TATTAAAAATGTTAAGTGCAAAAATAAAAATTGTGG [GTGCAC_site9854] | PfSIP2 AP2 domain 1 (GST-tagged) | 7.71
ATATATATTGTACTAGTGCATATATATACATATATT | PfSIP2 AP2 domain 1 (GST-tagged) | 8.43
ATTACATACGAGCACACGTAAAAGTATAATATAAAA [GTGCAC_negctrl_site446] | PfSIP2 AP2 domain 1 (GST-tagged) | 6.94
AAAAAATAAAAAATATGTACACATTCAAAATTTTAC [XGTACX_site8479] | PfSIP2 AP2 domain 1 (GST-tagged) | 6.91
TACAATTCGTAATACACACACATATAAATAAATATT [CACACA_site7720] | PfSIP2 AP2 domain 1 (GST-tagged) | 7.28
GACATATAAATATACACACATACGTAAGTATATTAA [CACACA_site1790] | PfSIP2 AP2 domain 1 (GST-tagged) | 6.91
ATAATTATATGATGAGTGCACAATAAAAATATCGTT [GTGCAC_site9920] | PfSIP2 AP2 domain 1 (GST-tagged) | 10.7
